test: in vitro; settings: human, Caco-2
Answer each item with its documented Papp B→A.
Give just the number in ×10⁻⁶ cm/s; leave the unit off.

Query: // returns reported Papp B→A for input `C[C@H]1O[C@@H](O[C@H]2[C@@H](O)C[C@H](O[C@H]3[C@@H](O)C[C@H](O[C@H]4CC[C@@]5(C)[C@H](CC[C@@H]6[C@@H]5C[C@@H](O)[C@]5(C)[C@@H](C7=CC(=O)OC7)CC[C@]65O)C4)O[C@@H]3C)O[C@@H]2C)C[C@H](O)[C@@H]1O`
Result: 12.5

Query: Requested read-out: Papp B→A. Entry: CC(C)NCC(O)COc1cccc2ccccc12 (centres unmarked)
Result: 17
